- assayed_system: protein kinases (human kinome) (Homo sapiens, UniProt P50613)
- Sequence (P50613 whole entry): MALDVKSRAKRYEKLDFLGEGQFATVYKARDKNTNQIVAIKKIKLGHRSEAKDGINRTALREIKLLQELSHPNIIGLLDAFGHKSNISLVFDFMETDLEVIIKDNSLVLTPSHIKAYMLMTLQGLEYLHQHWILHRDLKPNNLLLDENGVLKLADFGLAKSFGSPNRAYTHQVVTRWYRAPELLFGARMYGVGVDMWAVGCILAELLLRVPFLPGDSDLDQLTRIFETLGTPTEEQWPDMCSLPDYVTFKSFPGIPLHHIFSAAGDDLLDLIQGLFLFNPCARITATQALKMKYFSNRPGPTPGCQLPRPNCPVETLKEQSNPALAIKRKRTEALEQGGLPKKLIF
- Assay type: cell-based
- condition_parameters: CDK7 (P50613) protein abundance, degrader vs DMSO; down
# logFC listing for each entry below
Lab note: jot the number down without any unit.

INSERT INTO assay_data (molecule, assayed_system, data_value) VALUES
  ('Cc1cc(Nc2ncc(Br)c(Nc3cccc(F)c3C(N)=O)n2)ccc1S(=O)(=O)NCCOCCOCCOCCOCCNc1cccc2c1C(=O)N(C1CCC(=O)NC1=O)C2=O (centres unmarked)', 'protein kinases (human kinome) (Homo sapiens, UniProt P50613)', '−0.584'),
  ('CC(C)S(=O)(=O)c1ccccc1Nc1nc(Nc2ccc(N3CCN(CCOCCOCCC(=O)NCCNc4cccc5c4CN(C4CCC(=O)NC4=O)C5=O)CC3)cc2)ncc1Cl (centres unmarked)', 'protein kinases (human kinome) (Homo sapiens, UniProt P50613)', '−1.05'),
  ('CC(C)S(=O)(=O)c1ccccc1Nc1nc(Nc2ccc(N3CCN(CCOCCOCCOCCNC(=O)CNc4cccc5c4C(=O)N(C4CCC(=O)NC4=O)C5=O)CC3)cc2)ncc1Cl (centres unmarked)', 'protein kinases (human kinome) (Homo sapiens, UniProt P50613)', '−0.5325'),
  ('NC(=O)c1c(F)cccc1Nc1nc(NC2CCN(S(=O)(=O)CCNC(=O)CCCCCCCCOc3cccc4c3C(=O)N(C3CCC(=O)NC3=O)C4=O)CC2)ncc1Br (centres unmarked)', 'protein kinases (human kinome) (Homo sapiens, UniProt P50613)', '−0.601');

Let's switch to this molecule now.
For reference, reported logFC for NC(=O)c1c(F)cccc1Nc1nc(Nc2ccc(S(=O)(=O)NCCOCCOCCOCCOCCNc3cccc4c3C(=O)N(C3CCC(=O)NC3=O)C4=O)cc2)ncc1Br (centres unmarked) stands at −0.5239

* * *

- assayed_system: protein kinases (human kinome) (Homo sapiens, UniProt P24941)
- Assay type: cell-based
- condition_parameters: experiment wp016
- Source text: Although development of targeted protein degraders requires a POI binder, among already-liganded proteins such as kinases, it was hypothesized that different targets would have a different propensity for current approaches to degrader-mediated destruction, which was termed ‘degradability’. […]
endpoint_name: logFC CDK2 (P24941-1)

// worked examples, logFC CDK2 (P24941-1) included
INSERT INTO results (compound, data_value) VALUES
  ('CC(C)S(=O)(=O)c1ccccc1Nc1nc(Nc2ccc(N3CCN(CCOCCOCCNC(=O)CNc4ccc5c(c4)C(=O)N(C4CCC(=O)NC4=O)C5=O)CC3)cc2)ncc1Cl (stereo not drawn) [LT2.49]', '−0.5177'),
  ('CC(C)S(=O)(=O)c1ccccc1Nc1nc(Nc2ccc(N3CCN(CCOCCNC(=O)CNc4cccc5c4C(=O)N(C4CCC(=O)NC4=O)C5=O)CC3)cc2)ncc1Cl (stereo not drawn) [SK.3.91]', '−0.5115');

Read the next record carefully.
Form: compound = CC(C)S(=O)(=O)c1ccccc1Nc1nc(Nc2ccc(N3CCN(CCOCCOCCOCCNC(=O)CNc4ccc5c(c4)C(=O)N(C4CCC(=O)NC4=O)C5=O)CC3)cc2)ncc1Cl (stereo not drawn) [SK.3.89] ; logFC CDK2 (P24941-1) = −0.5953

* * *

- assayed_system: protein kinases (human kinome) (Homo sapiens, UniProt P51451)
- Sequence (P51451 whole entry): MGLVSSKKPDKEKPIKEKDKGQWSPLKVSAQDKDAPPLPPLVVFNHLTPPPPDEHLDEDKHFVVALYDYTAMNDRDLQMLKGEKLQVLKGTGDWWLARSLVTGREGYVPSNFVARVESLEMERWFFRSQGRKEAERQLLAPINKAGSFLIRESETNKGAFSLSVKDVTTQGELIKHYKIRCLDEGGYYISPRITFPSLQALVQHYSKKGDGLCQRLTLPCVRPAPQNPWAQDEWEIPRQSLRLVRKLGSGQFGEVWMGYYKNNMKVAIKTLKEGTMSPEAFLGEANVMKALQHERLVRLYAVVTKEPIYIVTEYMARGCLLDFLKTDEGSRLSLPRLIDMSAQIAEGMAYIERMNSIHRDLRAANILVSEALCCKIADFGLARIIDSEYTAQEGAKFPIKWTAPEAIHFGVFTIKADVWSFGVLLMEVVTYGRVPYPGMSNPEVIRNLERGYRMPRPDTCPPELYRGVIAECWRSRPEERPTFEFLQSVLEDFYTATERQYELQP
- Assay type: cell-based
- condition_parameters: Experiment wp016; down
endpoint_name: logFC of BLK (P51451)

Reference set, count: 2
INSERT INTO measurements (compound, data_value) VALUES
  ('CC(C)S(=O)(=O)c1ccccc1Nc1nc(Nc2ccc(N3CCN(CCOCCOCCNC(=O)CNc4ccc5c(c4)C(=O)N(C4CCC(=O)NC4=O)C5=O)CC3)cc2)ncc1Cl (stereo not drawn) [LT2.49]', '−1.613'),
  ('CC(C)S(=O)(=O)c1ccccc1Nc1nc(Nc2ccc(N3CCN(CCOCCOCCOCCNC(=O)CNc4cccc5c4C(=O)N(C4CCC(=O)NC4=O)C5=O)CC3)cc2)ncc1Cl (stereo not drawn) [SK.3.87]', '−0.9329');

Let's switch to this compound now.
Query CC(C)S(=O)(=O)c1ccccc1Nc1nc(Nc2ccc(N3CCN(CCOCCOCCOCCNC(=O)CNc4ccc5c(c4)C(=O)N(C4CCC(=O)NC4=O)C5=O)CC3)cc2)ncc1Cl (stereo not drawn) [SK.3.89] yields logFC of BLK (P51451) of −1.335

* * *

- assayed_system: protein kinases (human kinome) (Homo sapiens)
- Type: cell-based
- condition_parameters: experiment wp146
endpoint_name: logFC AURKA (O14965)
Lab note: record the figure alone, no unit after it.

Some solved cases for reference:
INSERT INTO results (compound, data_value) VALUES
  ('Cc1cc(Nc2ncc(Br)c(Nc3cccc(F)c3C(N)=O)n2)ccc1S(=O)(=O)NCCOCCOCCOCCOCCNc1cccc2c1C(=O)N(C1CCC(=O)NC1=O)C2=O (stereo not shown)', '−2.865'),
  ('NC(=O)c1c(F)cccc1Nc1nc(NC2CCN(S(=O)(=O)CCNC(=O)CCCCCCCCOc3cccc4c3C(=O)N(C3CCC(=O)NC3=O)C4=O)CC2)ncc1Br (stereo not shown)', '−2.621');

The recorded logFC AURKA (O14965) for entry Cc1cc(S(=O)(=O)NCCOCCOCCOCCOCCNc2cccc3c2C(=O)N(C2CCC(=O)NC2=O)C3=O)ccc1Nc1ncc(Br)c(Nc2cccc(F)c2C(N)=O)n1 (stereo not shown) equals −2.402

The compound NC(=O)c1c(F)cccc1Nc1nc(Nc2ccc(S(=O)(=O)NCCOCCOCCOCCOCCNc3cccc4c3C(=O)N(C3CCC(=O)NC3=O)C4=O)cc2)ncc1Br (stereo not shown) showed logFC AURKA (O14965) equal to −2.933

* * *

- System: protein kinases (human kinome)
- Type: cell-based
- condition_parameters: experiment wp016
endpoint_name: logFC PRKAA1 (Q13131-2)
Answer with a bare number; do not write a unit.

Examples with their reported logFC PRKAA1 (Q13131-2) follow.
INSERT INTO measurements (molecule, data_value) VALUES
  ('CC(C)S(=O)(=O)c1ccccc1Nc1nc(Nc2ccc(N3CCN(CCOCCOCCNC(=O)CNc4cccc5c4C(=O)N(C4CCC(=O)NC4=O)C5=O)CC3)cc2)ncc1Cl (stereo not shown)', '−0.434'),
  ('CC(C)S(=O)(=O)c1ccccc1Nc1nc(Nc2ccc(N3CCN(CCOCCOCCNC(=O)CNc4ccc5c(c4)C(=O)N(C4CCC(=O)NC4=O)C5=O)CC3)cc2)ncc1Cl (stereo not shown)', '−0.3739'),
  ('CC(C)S(=O)(=O)c1ccccc1Nc1nc(Nc2ccc(N3CCN(CCOCCNC(=O)CNc4cccc5c4C(=O)N(C4CCC(=O)NC4=O)C5=O)CC3)cc2)ncc1Cl (stereo not shown)', '−0.4914');

Here is the next item to consider.
Query CC(C)S(=O)(=O)c1ccccc1Nc1nc(Nc2ccc(N3CCN(CCOCCNC(=O)CNc4ccc5c(c4)C(=O)N(C4CCC(=O)NC4=O)C5=O)CC3)cc2)ncc1Cl (stereo not shown) yields logFC PRKAA1 (Q13131-2) of −0.4738

* * *

Listed here: items and their measured logFC ITK (Q08881).
- assayed_system: UniProt Q08881
- Sequence (Q08881 whole entry): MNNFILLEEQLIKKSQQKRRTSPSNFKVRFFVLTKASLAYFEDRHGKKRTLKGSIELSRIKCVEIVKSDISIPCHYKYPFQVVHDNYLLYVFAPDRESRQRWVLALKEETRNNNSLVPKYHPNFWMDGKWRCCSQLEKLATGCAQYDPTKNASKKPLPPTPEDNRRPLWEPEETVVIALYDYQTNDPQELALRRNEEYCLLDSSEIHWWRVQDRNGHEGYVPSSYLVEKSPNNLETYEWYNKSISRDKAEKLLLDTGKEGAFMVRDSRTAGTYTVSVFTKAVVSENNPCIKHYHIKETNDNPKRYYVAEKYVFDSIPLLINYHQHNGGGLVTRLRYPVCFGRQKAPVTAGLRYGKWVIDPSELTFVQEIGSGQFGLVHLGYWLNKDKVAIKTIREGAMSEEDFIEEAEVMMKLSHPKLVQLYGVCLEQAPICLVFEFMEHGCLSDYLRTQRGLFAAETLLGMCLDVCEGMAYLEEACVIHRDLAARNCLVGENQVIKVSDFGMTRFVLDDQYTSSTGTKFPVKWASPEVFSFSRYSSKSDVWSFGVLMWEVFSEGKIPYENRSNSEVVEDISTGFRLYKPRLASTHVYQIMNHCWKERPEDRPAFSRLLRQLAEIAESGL
- Type: cell-based
- condition_parameters: experiment wp016
- Text: Although development of targeted protein degraders requires a POI binder, among already-liganded proteins such as kinases, it was hypothesized that different targets would have a different propensity for current approaches to degrader-mediated destruction, which was termed ‘degradability’. […]

Examples from the recorded data:
INSERT INTO assay_data (molecule, data_value) VALUES
  ('CC(C)S(=O)(=O)c1ccccc1Nc1nc(Nc2ccc(N3CCN(CCOCCNC(=O)CNc4ccc5c(c4)C(=O)N(C4CCC(=O)NC4=O)C5=O)CC3)cc2)ncc1Cl (stereo not drawn)', '−2.136'),
  ('CC(C)S(=O)(=O)c1ccccc1Nc1nc(Nc2ccc(N3CCN(CCOCCNC(=O)CNc4cccc5c4C(=O)N(C4CCC(=O)NC4=O)C5=O)CC3)cc2)ncc1Cl (stereo not drawn)', '−2.308');

Item: CC(C)S(=O)(=O)c1ccccc1Nc1nc(Nc2ccc(N3CCN(CCOCCOCCNC(=O)CNc4ccc5c(c4)C(=O)N(C4CCC(=O)NC4=O)C5=O)CC3)cc2)ncc1Cl (stereo not drawn) | logFC ITK (Q08881): −2.212

Input CC(C)S(=O)(=O)c1ccccc1Nc1nc(Nc2ccc(N3CCN(CCOCCOCCNC(=O)CNc4cccc5c4C(=O)N(C4CCC(=O)NC4=O)C5=O)CC3)cc2)ncc1Cl (stereo not drawn) . Output logFC ITK (Q08881): −2.342

Given item CC(C)S(=O)(=O)c1ccccc1Nc1nc(Nc2ccc(N3CCN(CCOCCOCCOCCNC(=O)CNc4cccc5c4C(=O)N(C4CCC(=O)NC4=O)C5=O)CC3)cc2)ncc1Cl (stereo not drawn) , the value recorded as its logFC ITK (Q08881) is −1.868

Lookup result for CC(C)S(=O)(=O)c1ccccc1Nc1nc(Nc2ccc(N3CCN(CCOCCOCCOCCNC(=O)CNc4ccc5c(c4)C(=O)N(C4CCC(=O)NC4=O)C5=O)CC3)cc2)ncc1Cl (stereo not drawn) ; measured logFC ITK (Q08881): −2.044
